Cited source: patent US20150025074A1

# System: medulloblastoma cells derived from resistant Ptch+/−Hic+/− medulloblastoma tumors
# assay comment: ex-vivo medulloblastoma proliferation assay (48 h, 3H thymidine incorporation), resistant tumors
# Assay type: cell-based, mouse
# experimental setup: Mus musculus, Medulloblastoma cell; resistant tumors; read-out: IC50 in resistant tumors
assay endpoint: pIC50
// scale note: pIC50 = -log10(conc_M); give the bare number

Task: Looking for the measured pIC50 of Cc1c(C(=O)Nc2ccc(N3C[C@@H](C)O[C@@H](C)C3)nc2)cccc1-c1ccc(OC(F)(F)F)cc1 [Compound 1] , can you help?
Output: 5.05

---

# Tested on: medulloblastoma cells derived from sensitive Ptch+/−Hic+/− medulloblastoma tumors
# assay comment: ex-vivo medulloblastoma proliferation assay (48 h, 3H thymidine incorporation), sensitive tumors
# Type: cell-based
# experimental setup: Mus musculus, Medulloblastoma cell; sensitive cells; read-out: IC50, inhibition of sensitive cells
assay endpoint: IC50 (nM)
Use nM as the unit, but write only the number.

Task: Looking for the measured IC50 of Cc1c(C(=O)Nc2ccc(N3C[C@@H](C)O[C@@H](C)C3)nc2)cccc1-c1ccc(OC(F)(F)F)cc1 , can you help?
Output: 8
